Origin of measurements: patent US20200131180A1

Measurement target: human mAChR M1 (Homo sapiens)
Measurement protocol: mAChR M1 cell-based functional assay (calcium mobilization, PAM activity)
Experimental conditions: CHO-K1 cells expressing hM1; calcium flux (Fluo-4); concentration-dependent increase in the EC20 acetylcholine response
For each of the compounds below, state its EC50.
Quick note: give the figure in µM, leave out the unit.

Looking up Cn1ccc(-c2ccc(Cc3cc(C(=O)N[C@H]4CCC[C@@H]4O)c4nccn4c3)c(F)c2)n1 , I found its EC50 recorded as 1.2

Looking up Cn1cc(-c2ccc(Cc3cc(C(=O)N[C@H]4CCOC[C@@H]4O)c4nccn4c3)c(F)c2)cn1 , I found its EC50 recorded as 0.123

Looking up Cn1ccc(-c2ccc(Cc3cc(C(=O)N[C@H]4CCOC[C@@H]4O)c4nccn4c3)c(F)c2)n1 , I found its EC50 recorded as 0.249

Looking up Cn1ccc(-c2cc(F)c(Cc3cc(C(=O)N[C@H]4CCCC[C@@H]4O)c4nccn4c3)c(F)c2)n1 , I found its EC50 recorded as 0.558

Looking up O=C(N[C@H]1CCCC[C@@H]1O)c1cc(Cc2ccc(-n3cccn3)cc2)cc2ncnn12 , I found its EC50 recorded as 1.19

Looking up O=C(N[C@H]1CCCCC[C@@H]1O)c1cc(Cc2ccc(-n3cccn3)nc2)cn2ccnc12 , I found its EC50 recorded as 2.54

Looking up Cn1cc(-c2cc(F)c(Cc3cc(C(=O)N[C@H]4CCCC[C@@H]4O)c4nccn4c3)c(F)c2)cn1 , I found its EC50 recorded as 0.751

Looking up Cn1cc(-c2cc(F)c(Cc3cc(C(=O)N[C@H]4CCOC[C@@H]4O)c4nccn4c3)c(F)c2)cn1 , I found its EC50 recorded as 0.474

Looking up O=C(N[C@H]1CCCC[C@@H]1O)c1cc(Cc2ccc(-n3cccn3)nc2)cn2ccnc12 , I found its EC50 recorded as 1.01

Looking up Cc1c(Cc2ccc(-c3ccn(C)n3)cc2)cc(C(=O)N[C@H]2CCOC[C@@H]2O)c2nccn12 , I found its EC50 recorded as 0.0246

Looking up O=C(N[C@H]1CCCC[C@@H]1O)c1cc(Cc2ccc(-n3cccn3)cc2)cn2ccnc12 , I found its EC50 recorded as 0.61

Looking up Cn1ccc(-c2ccc(Cc3cc(C(=O)N[C@H]4CCC[C@@H]4O)c4ncnn4c3)cc2)n1 , I found its EC50 recorded as 2.54

Looking up Cn1ccc(-c2ccc(Cc3cc(C(=O)NC4CCOCC4)c4nccn4c3)cc2)n1 , I found its EC50 recorded as 6.34

Looking up O=C(N[C@H]1CCCC[C@@H]1O)c1cc(Cc2ccc(-n3cccn3)cc2)cn2ncnc12 , I found its EC50 recorded as 0.604

Looking up Cn1cc(-c2ccc(Cc3cc(C(=O)N[C@H]4CCOC[C@@H]4O)c4ncnn4c3)cn2)cn1 , I found its EC50 recorded as 0.903

Looking up Cn1cc(-c2ccc(Cc3cc(C(=O)N[C@H]4CCCC[C@@H]4O)c4nccn4c3)cc2)cn1 , I found its EC50 recorded as 0.699

Looking up Cn1cc(-c2ccc(Cc3cc(C(=O)N[C@H]4CCOC[C@@H]4O)c4ncnn4c3)cc2)cn1 , I found its EC50 recorded as 1.12

Looking up Cn1ccc(-c2ccc(Cc3cc(C(=O)N[C@H]4CCOC[C@@H]4O)c4ncnn4c3)cc2)n1 , I found its EC50 recorded as 0.79

Looking up Cn1ccc(-c2ccc(Cc3cc(C(=O)N[C@H]4CCCC[C@@H]4O)c4ncnn4c3)c(F)c2)n1 , I found its EC50 recorded as 0.742

Looking up Cn1ccc(-c2ccc(Cc3cc(C(=O)N[C@H]4CCOC[C@@H]4O)c4ncnn4c3)cn2)n1 , I found its EC50 recorded as 7.98

Looking up Cc1nc(-c2ccc(Cc3cc(C(=O)N[C@H]4CCCC[C@@H]4O)c4ncnn4c3)cc2)co1 , I found its EC50 recorded as 1.43

Looking up Cc1c(Cc2ccc(-c3cnn(C)c3)cc2F)cc(C(=O)N[C@H]2CCOC[C@@H]2O)c2nccn12 , I found its EC50 recorded as 0.0322

Looking up O=C(N[C@H]1CCOC[C@@H]1O)c1cc(Cc2ccc(-n3cccn3)nc2)cn2ccnc12 , I found its EC50 recorded as 4.82

Looking up Cn1ccc(-c2ccc(Cc3cc(C(=O)N[C@@H]4CC[C@H]4O)c4ncnn4c3)cc2)n1 , I found its EC50 recorded as 4.07

Looking up Cn1cc(-c2ccc(Cc3cc(C(=O)NC4CCOCC4)c4ncnn4c3)cc2)cn1 , I found its EC50 recorded as 3.69

Looking up Cn1ccc(-c2cc(F)c(Cc3cc(C(=O)N[C@H]4CCCC[C@@H]4O)c4ncnn4c3)c(F)c2)n1 , I found its EC50 recorded as 0.936

Looking up Cc1nc(-c2ccc(Cc3cc(C(=O)N[C@H]4CCOC[C@@H]4O)c4ncnn4c3)cc2)co1 , I found its EC50 recorded as 2.55

Looking up Cn1ccc(-c2ccc(Cc3cc(C(=O)N[C@H]4CCOC[C@@H]4O)c4nccn4c3)cn2)n1 , I found its EC50 recorded as 4.35

Looking up Cn1cc(-c2ccc(Cc3cc(C(=O)N[C@H]4CCOC[C@@H]4O)c4nccn4c3)cc2)cn1 , I found its EC50 recorded as 1.36

###

Measurement target: human mAChR M1 (Homo sapiens, UniProt P11229)
Sequence (P11229 whole entry): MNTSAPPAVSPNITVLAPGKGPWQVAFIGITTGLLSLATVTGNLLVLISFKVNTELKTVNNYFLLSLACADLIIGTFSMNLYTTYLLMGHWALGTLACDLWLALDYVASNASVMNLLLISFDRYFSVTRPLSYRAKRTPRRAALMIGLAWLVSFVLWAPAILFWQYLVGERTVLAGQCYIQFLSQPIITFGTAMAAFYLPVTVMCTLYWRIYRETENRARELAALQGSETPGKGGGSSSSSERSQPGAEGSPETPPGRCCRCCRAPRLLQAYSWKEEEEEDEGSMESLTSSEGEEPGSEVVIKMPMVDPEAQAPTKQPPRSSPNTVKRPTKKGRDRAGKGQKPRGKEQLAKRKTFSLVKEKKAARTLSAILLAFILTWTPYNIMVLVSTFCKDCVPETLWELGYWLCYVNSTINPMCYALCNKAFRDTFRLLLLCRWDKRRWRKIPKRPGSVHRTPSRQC
Measurement protocol: mAChR M1 cell-based functional assay (calcium mobilization, PAM activity)
Experimental conditions: CHO-K1 cells expressing hM1; calcium flux (Fluo-4); potentiation of EC20 acetylcholine response
Measurement type: Emax (%)
Quick note: give the figure in %, leave out the unit.

Looking up O=C(N[C@H]1CCOC[C@@H]1O)c1cc(Cc2ccc(-n3cccn3)cc2)cc2ncnn12 [compound 18] , I found its Emax recorded as 81

Looking up Cn1cc(-c2cc(F)c(Cc3cc(C(=O)N[C@H]4CCCC[C@@H]4O)c4ncnn4c3)c(F)c2)cn1 [compound 44] , I found its Emax recorded as 82

Looking up O=C(N[C@H]1CCCC[C@@H]1O)c1cc(Cc2ccc(-n3cccn3)cc2)cn2ncnc12 [compound 33] , I found its Emax recorded as 87

Looking up Cn1ccc(-c2ccc(Cc3cc(C(=O)NC4CCOCC4)c4nccn4c3)cc2)n1 [compound 1] , I found its Emax recorded as 68

###

Measurement target: UniProtKB P11229
Measurement protocol: mAChR M1 cell-based functional assay (calcium mobilization, PAM activity)
Experimental conditions: CHO-K1 cells expressing hM1; calcium flux (Fluo-4); potentiation of EC20 acetylcholine response
Lab note: cut-off is 80%. Strictly less in Emax is Criterion met. Exactly 80% or more is Criterion not met.

State whether 80% exceeds Emax recorded for Cn1ccc(-c2ccc(Cc3cc(C(=O)N[C@H]4CCCC[C@@H]4O)c4ncnn4c3)cc2)n1 .
Criterion not met

State whether 80% exceeds Emax recorded for Cn1ccc(-c2ccc(Cc3cc(C(=O)N[C@H]4CCCC[C@@H]4O)c4ncnn4c3)cn2)n1 .
Criterion not met

State whether 80% exceeds Emax recorded for Cc1c(Cc2ccc(-c3ccn(C)n3)cc2)cc(C(=O)N[C@H]2CCOC[C@@H]2O)c2nccn12 .
Criterion met

State whether 80% exceeds Emax recorded for Cn1ccc(-c2ccc(Cc3cc(C(=O)N[C@@H]4CCCC[C@H]4O)c4nccn4c3)cc2)n1 .
Criterion met

State whether 80% exceeds Emax recorded for O=C(NC1CCOCC1)c1cc(Cc2ccc(-n3cccn3)cc2)cc2ncnn12 .
Criterion met

State whether 80% exceeds Emax recorded for O=C(N[C@H]1CCOC[C@@H]1O)c1cc(Cc2ccc(C(F)(F)F)nc2)cn2ccnc12 .
Criterion met

State whether 80% exceeds Emax recorded for Cc1c(Cc2ccc(-c3ccn(C)n3)cc2)cc(C(=O)N[C@H]2CCCC[C@@H]2O)c2nccn12 .
Criterion met

###

Measurement target: human mAChR M1 (Homo sapiens)
Measurement protocol: mAChR M1 cell-based functional assay (calcium mobilization, PAM activity)
Experimental conditions: CHO-K1 cells expressing hM1; calcium flux (Fluo-4); concentration-dependent increase in the EC20 acetylcholine response
For each of the compounds below, state its EC50.
Quick note: give the figure in nM, leave out the unit.

Form field, EC50 with human mAChR M1 (Homo sapiens), item Cn1ccc(-c2cc(F)c(Cc3cc(C(=O)N[C@H]4CCOC[C@@H]4O)c4ncnn4c3)c(F)c2)n1 : 1200

Form field, EC50 with human mAChR M1 (Homo sapiens), item Cn1ccc(-c2ccc(Cc3cc(C(=O)N[C@H]4CCCC[C@@H]4O)c4ncnn4c3)cc2)n1 : 483

Form field, EC50 with human mAChR M1 (Homo sapiens), item Cn1ccc(-c2ccc(Cc3cc(C(=O)N[C@H]4CCOC[C@@H]4O)c4ncnn4c3)c(F)c2)n1 : 693

Form field, EC50 with human mAChR M1 (Homo sapiens), item Cc1c(Cc2ccc(-c3cnn(C)c3)cc2F)cc(C(=O)N[C@H]2CCCC[C@@H]2O)c2nccn12 : 97.8

Form field, EC50 with human mAChR M1 (Homo sapiens), item Cn1ccc(-c2cc(F)c(Cc3cc(C(=O)N[C@H]4CCOC[C@@H]4O)c4nccn4c3)c(F)c2)n1 : 507

Form field, EC50 with human mAChR M1 (Homo sapiens), item O=C(N[C@H]1CCC[C@@H]1O)c1cc(Cc2ccc(-n3cccn3)cc2)cn2ccnc12 : 2140

Form field, EC50 with human mAChR M1 (Homo sapiens), item O=C(N[C@H]1CCOC[C@@H]1O)c1cc(Cc2ccc(-n3cccn3)cc2)cc2ncnn12 : 4440
